- System: Mus musculus
- PROTOCOL NOTES: Toxicity in mouse assessed as induction of induction of death at 0.1 mL/10 g, iv
- Format: organism-based
- EXPERIMENTAL CONTEXT: in vivo

SMILES STRUCTURE: C[C@@H]1O[C@@H](O[C@H]2[C@H](O[C@H]3CC[C@@]4(C)[C@@H](CC[C@]5(C)[C@@H]4CC=C4[C@@H]6CC(C)(C)CC[C@]6(C(=O)NCC(=O)[O-])CC[C@]45C)[C@]3(C)CO)OC[C@H](O)[C@@H]2O)[C@H](O)[C@H](O)[C@H]1O.[Na+]
Activity: Non-toxic
//
SMILES STRUCTURE: C[C@@H]1O[C@@H](O[C@H]2[C@H](O[C@H]3CC[C@@]4(C)[C@@H](CC[C@]5(C)[C@@H]4CC=C4[C@@H]6CC(C)(C)CC[C@]6(C(=O)[O-])CC[C@]45C)[C@]3(C)CO)OC[C@H](O[C@@H]3O[C@H](CO)[C@@H](O)[C@H](O)[C@H]3O)[C@@H]2O)[C@H](O)[C@H](O)[C@H]1O.[Na+]
Activity: Toxic
//
SMILES STRUCTURE: C[C@@H]1O[C@@H](O[C@H]2[C@H](O[C@H]3CC[C@@]4(C)[C@@H](CC[C@]5(C)[C@@H]4CC=C4[C@@H]6CC(C)(C)CC[C@]6(C(=O)[O-])CC[C@]45C)[C@]3(C)CO)OC[C@H](O)[C@@H]2O)[C@H](O)[C@H](O)[C@H]1O.[Na+]
Activity: Toxic
//
SMILES STRUCTURE: C[C@@H]1O[C@@H](O[C@H]2[C@H](O[C@H]3CC[C@@]4(C)[C@@H](CC[C@]5(C)[C@@H]4CC=C4[C@@H]6CC(C)(C)CC[C@]6(C(=O)NCC(=O)[O-])CC[C@]45C)[C@]3(C)CO)OC[C@H](O[C@@H]3O[C@H](CO)[C@@H](O)[C@H](O)[C@H]3O)[C@@H]2O)[C@H](O)[C@H](O)[C@H]1O.[Na+]
Activity: Non-toxic
